// data source = patent US20260308185A1

# pIC50 listing for each entry below
- System Under Test: Recombinant STAT6 protein (STAT6(W123-T658)) (Homo sapiens, UniProt P42226)
- Construct: Recombinant STAT6 protein (STAT6(W123-T658))
- Sequence (P42226 123-658): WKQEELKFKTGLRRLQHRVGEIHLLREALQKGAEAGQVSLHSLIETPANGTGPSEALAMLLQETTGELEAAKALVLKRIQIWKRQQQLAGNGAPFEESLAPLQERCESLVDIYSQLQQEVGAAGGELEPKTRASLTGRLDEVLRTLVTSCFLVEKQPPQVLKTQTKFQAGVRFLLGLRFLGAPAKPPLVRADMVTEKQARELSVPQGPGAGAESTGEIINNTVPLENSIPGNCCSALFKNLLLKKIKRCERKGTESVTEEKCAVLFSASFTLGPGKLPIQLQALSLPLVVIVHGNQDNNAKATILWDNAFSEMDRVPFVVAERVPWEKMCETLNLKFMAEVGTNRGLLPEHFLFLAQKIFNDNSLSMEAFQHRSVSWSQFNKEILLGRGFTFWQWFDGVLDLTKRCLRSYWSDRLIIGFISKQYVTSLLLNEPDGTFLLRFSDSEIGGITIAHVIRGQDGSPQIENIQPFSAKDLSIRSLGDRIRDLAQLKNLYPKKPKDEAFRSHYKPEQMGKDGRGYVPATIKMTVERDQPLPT
- Protocol Details: STAT6 Fluorescence Polarization (FP) Assay
- Experimental Setup: 250 nM STAT6(W123-T658), 2 nM 5-FAM-Ap[…]-NH2 probe, pH 7.4, 45-minute incubation at room temperature
pIC50: −log10 of the molar value.

{"Compound": "N#CC1CN(C(=O)C2CCC3CC4CC4CC(NC(=O)c4cc5cc(C(F)(F)P(=O)(O)O)ccc5s4)C(=O)N32)CC1c1cccc(OCCCCCC#Cc2cccc3c2CN(C2CCC(=O)NC2=O)C3=O)c1 (stereo not drawn)", "pIC50": "5.52 to 6.52"}
{"Compound": "N#CC1CN(C(=O)C2CCC3CC4CC4CC(NC(=O)c4cc5cc(C(F)(F)P(=O)(O)O)ccc5s4)C(=O)N32)CC1c1cccc(N2CCN(c3ccc4c(c3)[nH]c(=O)n4C3CCC(=O)NC3=O)CC2)c1 (stereo not drawn)", "pIC50": "> 6.52"}
{"Compound": "O=C1CCC(c2ccc(OCCCCCn3ccc([C@@H]4CN(C(=O)[C@@H]5CC[C@@H]6C[C@H]7C[C@H]7C[C@H](NC(=O)c7cc8cc(C(F)(F)P(=O)(O)O)ccc8s7)C(=O)N65)C5(CC5)C4)cc3=O)cc2)C(=O)N1 (stereo partly drawn)", "pIC50": "> 6.52"}
